Molecular target: labeled HBV core protein dimer, Cp150Bo (Hepatitis B virus genotype D subtype adw, UniProt P03147, C107A/C48A/C61A/R150C)
Sequence (P03147 1-150 C48A/C61A/C107A/R150C): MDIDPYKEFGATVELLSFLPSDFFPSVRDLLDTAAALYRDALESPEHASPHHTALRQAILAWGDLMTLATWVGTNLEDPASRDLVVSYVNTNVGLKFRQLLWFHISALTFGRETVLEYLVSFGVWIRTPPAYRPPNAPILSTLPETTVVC
Assay: Fluorescence quenching assay of HBV assembly
Type: biochemical
Conditions: single time point 24 hr after assembly initiated with NaCl; about 30±15% assembly without stimulation
measurement_label: Assembly (%)
Output spec: scalar in %, unitless text.

Lookup: Return reported Assembly; argument: COC(=O)C1=C(CN2CCCC2)NC(c2ccccn2)=NC1c1ccc(F)cc1Cl (centres unmarked) [Compound B-35]
Found: 87

Lookup: Return reported Assembly; argument: COC(=O)C1=C(C)NC(=S)NC1c1ccc(F)cc1Cl (centres unmarked) [Compound B77]
Found: 15

Lookup: Return reported Assembly; argument: COC(=O)C1=C(CN2CCC3=NN(C)C(=O)C3C2)NC(c2ccccn2)=NC1c1ccc(F)cc1Cl (centres unmarked) [Compound B69]
Found: 54

Lookup: Return reported Assembly; argument: CCOC(=O)C1=C(c2ccccc2)NC(c2ccccn2)=NC1c1ccc(F)cc1Cl (centres unmarked) [Compound B-22]
Found: 77

Lookup: Return reported Assembly; argument: C#CCNC(=O)c1ccc(C2=NC(c3ccc(F)cc3Cl)C(C(=O)OC)=C(C)N2)nc1 (centres unmarked) [Compound B-15]
Found: 48

Lookup: Return reported Assembly; argument: COC(=O)C1=C(C)NC(c2ccncc2)=NC1c1ccc(F)cc1Cl (centres unmarked) [Compound B-1]
Found: 78

Lookup: Return reported Assembly; argument: C#CCNC(=O)C1=C(C)NC(c2ccncc2)=NC1c1ccc(F)cc1Cl (centres unmarked) [Compound B-3]
Found: 48

Lookup: Return reported Assembly; argument: C#CCCCCC(=O)N1CCN(CC2=C(C(=O)OC)C(c3ccc(F)cc3Cl)N=C(c3ccccn3)N2)CC1 (centres unmarked) [Compound B75]
Found: 134
